The reported measurements were obtained from ChEMBL document CHEMBL1125554.

test system: Serratia marcescens; assay: In vitro antibacterial activity against Serratia marcescens IFO 3736; format: functional; settings: Serratia marcescens, IFO 3736; read-out: MIC
observable: MIC (µg/mL)
Please give a number only; it is taken to be in µg/mL.

Solved cases (5 shown):
CCC1Sc2c(C(=O)O)c(=O)c3cc(F)c(N4CCN(C)CC4)cc3n21 (stereo not given) | 0.78
CC1Sc2c(C(=O)O)c(=O)c3cc(F)c(N4CCNC(=O)C4)cc3n21 (stereo not given) | 3.13
O=C(O)c1cn(C2CC2)c2cc(N3CCNCC3)c(F)cc2c1=O [CIPROFLOXACIN] | 0.1
O=C(O)c1c2n(c3cc(N4CCNCC4)c(Cl)cc3c1=O)CS2 | 0.2
Cl.O.O=C(O)c1c2n(c3cc(N4CCNCC4)c(F)cc3c1=O)CS2 | 0.1

Query :: Given O=C(O)c1c2n(c3cc(N4CCNCC4)c(F)cc3c1=O)C(c1ccccc1F)S2 (stereo not given) , respond with its MIC.
Result :: 12.5

Query :: Given CC(=O)N1CCN(c2cc3c(cc2F)c(=O)c(C(=O)O)c2n3C(C)S2)CC1 (stereo not given) , respond with its MIC.
Result :: 1.56

Query :: Given CN1CCN(c2cc3c(cc2F)c(=O)c(C(=O)O)c2n3C(c3ccc(F)cc3F)S2)CC1 (stereo not given) , respond with its MIC.
Result :: 12.5

Query :: Given C=CCN1CCN(c2cc3c(cc2F)c(=O)c(C(=O)O)c2n3C(C)S2)CC1 (stereo not given) , respond with its MIC.
Result :: 0.19

###

tested on: Staphylococcus aureus; test: In vitro antibacterial activity against Staphylococcus aureus 209P JC-1; type: functional; conditions: Staphylococcus aureus; read-out: MIC
Quick list: MIC per entry.
Provide the measurement as a number trailed by its unit.

Query :: Given `CN1CCN(c2cc3c(cc2Cl)c(=O)c(C(=O)O)c2n3CS2)CC1` , respond with its MIC.
Result :: 0.2 µg/mL

Query :: Given CC1Sc2c(C(=O)O)c(=O)c3cc(F)c(N4CCN(Cc5ccc(N)cc5)CC4)cc3n21 (stereo not given) , respond with its MIC.
Result :: 0.05 µg/mL

Query :: Given CCN1CCN(c2cc3c(cc2F)c(=O)c(C(=O)O)c2n3C(C)S2)CC1 (stereo not given) , respond with its MIC.
Result :: 0.1 µg/mL

Query :: Given CC1Sc2c(C(=O)O)c(=O)c3cc(F)c(N4CCSCC4)cc3n21 (stereo not given) , respond with its MIC.
Result :: 0.025 µg/mL

Query :: Given CC(=O)N1CCN(c2cc3c(cc2F)c(=O)c(C(=O)O)c2n3C(C)S2)CC1 (stereo not given) , respond with its MIC.
Result :: 0.2 µg/mL

Query :: Given CN1CCN(c2cc3c(cc2F)c(=O)c(C(=O)O)c2n3C(c3ccc(F)cc3F)S2)CC1 (stereo not given) , respond with its MIC.
Result :: 1.56 µg/mL

###

Quick list: MIC per entry.
test system: Serratia marcescens; assay: In vitro antibacterial activity against Serratia marcescens IFO 3736; format: functional; details: Serratia marcescens, IFO 3736; read-out: MIC
Please give a number only; it is taken to be in µg/mL.

Solved cases (2 shown):
O=C(O)c1c2n(c3cc(N4CCNCC4)c(F)cc3c1=O)C(c1ccc(F)cc1)S2 (stereo not drawn) | 0.39
CC1Sc2c(C(=O)O)c(=O)c3cc(Cl)c(N4CCNCC4)cc3n21 (stereo not drawn) | 0.1

Now, please, on to the next compound.
Query :: Given CC1Sc2c(C(=O)O)c(=O)c3cc(F)c(N4CCN(CCO)CC4)cc3n21 (stereo not drawn) , respond with its MIC.
Result :: 0.39
